- target_or_system: wild-type HIV-1 protease (Human immunodeficiency virus type 1 group M subtype B)
- method_notes: Assay for inhibition of microbial expressed HIV protease
- Assay type: biochemical
- experimental_parameters: wild-type HIV-1 protease expressed in E. coli, peptide substrate, pH 5.5; read-out: Enzyme Inhibition - IC50
# Lookup of reported IC50 keyed by entry
Report the value in nM with no unit label.

Some solved entries appear below for comparison.
- molecule: "CC[C@@H](CCC[C@@H](CO)N(CCC(C)C)S(=O)(=O)c1ccc(N)cc1)NC(=O)[C@@H](NC(=O)OCc1ccncc1)C(c1ccccc1)c1ccccc1 [Example F10]"
  measurement_unit: "nM"
  numeric_result: 0.01
- molecule: "COC(=O)N[C@H](C(=O)N[C@H](CCC[C@@H](CO)N(CCC(C)C)S(=O)(=O)c1ccc(CO)cc1)C1CC1)C(c1ccc(F)cc1)c1ccc(F)cc1 [Example J16]"
  measurement_unit: "nM"
  numeric_result: 0.01

Moving on to another molecule below.
IN: Please indicate recorded IC50 of COC(=O)N[C@H](C(=O)N[C@H](CCC[C@@H](CO)N(CCC(C)C)S(=O)(=O)c1ccc(CO)cc1)C(C)C)C(c1ccccc1)c1ccccc1 [Example J9] measured with wild-type HIV-1 protease (Human immunodeficiency virus type 1 group M subtype B).
OUT: 0.069
